# Test system: OVCAR-5 ovarian
# ASSAY COMMENT: NCI-60 one-dose screen, 48 h
# EXPERIMENTAL PARAMETERS: 10 µM unless noted
About 83,000 compounds went through this panel and 20% of them were active in at least one assay; those are over-represented in the sample as a whole. Active and inactive are the calls of the source. Rule for the calls: active = growth percent below 10; inactive = the rest.
Possible outcomes: active, inactive

- MOLECULE: "CCCCN(Cc1ccc(C(=O)NO)cc1)C(=O)Nc1ccc(OCCCCCCCCCn2cc(CCCCC(=O)N[C@H](C(=O)N3C[C@H](O)C[C@H]3C(=O)NCc3ccc(-c4scnc4C)cc3)C(C)(C)C)nn2)cc1"
  ASSIGNED CATEGORY: "inactive"
- MOLECULE: "O=C1Nc2ccccc2SC1c1ccccc1Cl (stereo not drawn)"
  ASSIGNED CATEGORY: "inactive"
- MOLECULE: "C=CC(=O)Nc1cccc(C)c1Nc1cc(-c2cccnc2Cc2c(C)c(OC)cc(OC)c2C)ncn1"
  ASSIGNED CATEGORY: "inactive"
- MOLECULE: "O[C@H]1CO[C@H]2[C@@H]1OC[C@@H]2Oc1ccc(Nc2ccnc(Nc3ccc(O[C@H]4CO[C@H]5[C@@H]4OC[C@@H]5O)c(Cl)c3)n2)cc1Cl"
  ASSIGNED CATEGORY: "inactive"
- MOLECULE: "O=C(Nc1ccc(N2CCCCC2)c(Cl)c1)c1ccc(Br)o1"
  ASSIGNED CATEGORY: "inactive"
- MOLECULE: "N#C/C(=C\\c1ccc(Br)cc1)n1nnc2ccccc21"
  ASSIGNED CATEGORY: "active"
- MOLECULE: "CCOC(=O)c1nnn(C(Cc2ccccc2Cl)C(=O)OCC)c1C (stereo not drawn)"
  ASSIGNED CATEGORY: "inactive"
- MOLECULE: "COc1cc(C(=O)Nc2cc(O)c(CC=C(C)C)c(O)c2)cc2c1O[C@]1(C)CC[C@@H](O)C(C)(C)[C@H]1C2"
  ASSIGNED CATEGORY: "inactive"

Data credit: PubChem BioAssay (NCI)
